The reported measurements were obtained from PubChem BioAssay (NCI).

Documented TGI across a set of molecules
Test system: MALME-3M melanoma
Assay: NCI tumour cell line growth inhibition, 48 h

molecule	TGI
COC(=O)N/N=C(/CC1(O)C(=O)Nc2ccc([N+](=O)[O-])cc21)c1ccccc1 (centres undefined)	> 75.4 µM
CN1N(c2ccccc2)C(=O)C2=NC=C(C(=O)c3ccccc3)C(=N)C21C (centres undefined)	> 100 µM
CSc1ccc(C2=NN(c3ccccc3)C(c3ccc(-c4cc(Cl)c(Cl)cc4Cl)o3)C2)cc1 (centres undefined)	> 100 µM
C#CC1(O)C(COP(=O)(O)OC(COCCCCCCCCCCCCCCCCCC)COP(=O)(O)OCC2OC(n3cc(C)c(=O)[nH]c3=O)CC2N=[N+]=[N-])OC(n2ccc(N)nc2=O)C1O (centres undefined)	36.8 µM
COc1ccc(Cc2c(N)[nH]c(=O)[nH]c2=O)cc1	> 100 µM
C=C(C)[C@@H]1/C=C(/C(C)C)CC[C@@]2(C)OC2CC[C@H](C)CC1=O (some centres undefined)	> 100 µM
COc1ccc2nccc(/C=C/c3ccc(N(C)C)cc3)c2c1	> 10 µM
COc1cc(C2CC(c3ccc(SC)cc3)=NN2C(C)=O)cc(OC)c1OC (centres undefined)	> 100 µM
CC(=O)O[C@]1(C)CCC2C(C)C(=O)OC2C2C(C)[C@@H](O)CC21 (some centres undefined)	> 100 µM
